The values you see were collected from the supplement of paper PMC8967900.

test system: NALL-1; experiment: selective drug sensitivity score (sDSS, relative to normal bone marrow) (sDSS (score)); higher = more potent and effective on the cell line relative to normal bone marrow cells; conditions: 72 h;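 note: ALL cell lines in 384-well plates, five doses spanning 10,000-fold, each plate scaled between vehicle and 100 µmol/L benzalkonium chloride controls, sDSS an adapted area-under-curve metric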
Parameter: selective drug sensitivity score. Scope: all listed entries.
quantity-name: selective drug sensitivity score

compound="Cc1c(-c2ccc(N3CCc4cccc(C(=O)Nc5nc6ccccc6s5)c4C3)nc2C(=O)O)cnn1CC12CC3CC(CC(C3)C1)C2 (top concentration 1000 nM)" quantity_name="selective drug sensitivity score" quantitative_readout=0.14
compound="C=CC(=O)Nc1cc2c(Nc3ccc(F)c(Cl)c3)ncnc2cc1OCCCN1CCOCC1 [Canertinib] (top concentration 10000 nM)" quantity_name="selective drug sensitivity score" quantitative_readout=-0.94
compound="CCC(C)n1ncn(-c2ccc(N3CCN(c4ccc(OCC5COC(Cn6cncn6)(c6ccc(Cl)cc6Cl)O5)cc4)CC3)cc2)c1=O (stereo not drawn) [Itraconazole] (top concentration 5000 nM)" quantity_name="selective drug sensitivity score" quantitative_readout=-4.12

====

tested on: NALL-1; experiment: selective drug sensitivity score (sDSS, relative to normal bone marrow) (sDSS (score)); higher = more potent and effective on the cell line relative to normal bone marrow cells; conditions: 72 h
Parameter: selective drug sensitivity score. Scope: all listed entries.
quantity-name: selective drug sensitivity score

molecule="COc1cc(OC)cc(N(CCNC(C)C)c2ccc3ncc(-c4cnn(C)c4)nc3c2)c1 [Erdafitinib] (top concentration 1000 nM)" quantitative_readout=5.34
molecule="N#Cc1ccc2[nH]c(O)c(-c3ccc(CN4CCOCC4)cn3)c2c1 [AZD-1080] (top concentration 10000 nM)" quantitative_readout=-0.02
molecule="Clc1ccc(Nc2nnc(Cc3ccncc3)c3ccccc23)cc1 [Vatalanib] (top concentration 10000 nM)" quantitative_readout=0
molecule="O=C(Nc1ccc(OC(F)(F)Cl)cc1)c1cnc(N2CC[C@@H](O)C2)c(-c2cc[nH]n2)c1 [Asciminib] (top concentration 1000 nM)" quantitative_readout=3.62
molecule="COc1ccc(C[C@H](NC(=O)[C@H](C)NC(=O)CN2CCOCC2)C(=O)N[C@@H](Cc2ccccc2)C(=O)[C@@]2(C)CO2)cc1 [ONX-0914] (top concentration 10000 nM)" quantitative_readout=9.8

====

Parameter: selective drug sensitivity score. Scope: all listed entries.
system: RPMI-8402; assay: selective drug sensitivity score (sDSS, relative to normal bone marrow) (sDSS (score)); higher = more potent and effective on the cell line relative to normal bone marrow cells; conditions: 72 h
quantity-name: selective drug sensitivity score

compound="O=C(NOC[C@H](O)CO)c1ccc(F)c(F)c1Nc1ccc(I)cc1F (top concentration 1000 nM)" quantity_name="selective drug sensitivity score" quantitative_readout=-3.86
compound="COc1cc(OC)c(/C=C/S(=O)(=O)Cc2ccc(OC)c(NCC(=O)O)c2)c(OC)c1 [Rigosertib] (top concentration 10000 nM)" quantity_name="selective drug sensitivity score" quantitative_readout=13.3
compound="COc1cc(OC)cc(N(CCNC(C)C)c2ccc3ncc(-c4cnn(C)c4)nc3c2)c1 [Erdafitinib] (top concentration 1000 nM)" quantity_name="selective drug sensitivity score" quantitative_readout=-0.56
compound="CC1=C(/C=C/C(C)=C/C=C/C(C)=C/C(=O)O)C(C)(C)CCC1 [Tretinoin] (top concentration 10000 nM)" quantity_name="selective drug sensitivity score" quantitative_readout=-2.4
compound="CC(=O)c1cnc2ccc(-c3cc(Cl)c(O)c(Cl)c3)nc2c1N[C@H]1CC[C@H](CN(C)C)CC1 [OTS167] (top concentration 1000 nM)" quantity_name="selective drug sensitivity score" quantitative_readout=0.28
compound="NC(=O)c1cccc2cn(-c3ccc(C4CCCNC4)cc3)nc12 (configuration not stated) [Niraparib] (top concentration 10000 nM)" quantity_name="selective drug sensitivity score" quantitative_readout=1.98
compound="N#Cc1ccc2[nH]c(O)c(-c3ccc(CN4CCOCC4)cn3)c2c1 [AZD-1080] (top concentration 10000 nM)" quantity_name="selective drug sensitivity score" quantitative_readout=-0.02
